molecular target: T1, human PSMA expressed with an N-terminal hexahistidine tag (6h.hPSMA, R&D) (human, UniProt Q04609 44-750); test: SPR Biacore T-200, 37 C, antibody-capture (anti-human Fc), 6h.hPSMA as analyte
T1 construct: Bought soluble protein; also called soluble human PSMA; human PSMA protein
T1 sequence (Q04609 other isoform, or with tags, fused parts or gaps limits assumed): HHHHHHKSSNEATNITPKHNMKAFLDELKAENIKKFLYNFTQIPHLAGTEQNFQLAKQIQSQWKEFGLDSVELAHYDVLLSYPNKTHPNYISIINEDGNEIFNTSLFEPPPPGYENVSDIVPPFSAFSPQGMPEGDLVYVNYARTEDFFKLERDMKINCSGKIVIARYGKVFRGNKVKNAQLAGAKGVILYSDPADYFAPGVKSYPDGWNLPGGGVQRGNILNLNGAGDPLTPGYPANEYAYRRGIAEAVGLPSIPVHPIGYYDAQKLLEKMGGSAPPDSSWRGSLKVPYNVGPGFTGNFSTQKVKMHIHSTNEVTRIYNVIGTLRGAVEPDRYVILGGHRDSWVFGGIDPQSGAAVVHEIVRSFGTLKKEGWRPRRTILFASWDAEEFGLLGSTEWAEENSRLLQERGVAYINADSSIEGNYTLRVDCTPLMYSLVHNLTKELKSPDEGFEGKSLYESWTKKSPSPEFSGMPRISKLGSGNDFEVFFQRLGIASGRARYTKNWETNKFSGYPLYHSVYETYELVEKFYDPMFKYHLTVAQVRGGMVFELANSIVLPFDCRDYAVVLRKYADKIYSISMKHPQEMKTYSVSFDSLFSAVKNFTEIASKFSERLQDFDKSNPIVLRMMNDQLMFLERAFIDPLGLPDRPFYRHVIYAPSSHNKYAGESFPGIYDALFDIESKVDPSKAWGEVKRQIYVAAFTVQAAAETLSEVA
Entries and their t1/2
Write the value in min as a bare number.

[[record]]
binder = "H1H11797P2 (antibody, human IgG1, V domains shown, human IgG1) VH: QVQLVESGGGVVQPGRSLRLSCAASGFSFSGYGMHWVRQAPGKGLEWVAVTWYDGSNKYYADSVKGRFTISRDNSKNTLYLQMNSLRAEDTAVYYCARDGNWGGPYWYFDLWGRGTLVTVSS VL: DIQMTQSPSSLSASVGDSVTITCRASQSINNYLNWYQQKPGKAPKLLIYTASSLLSGVPSRFSGSGSGTDFTLTISGLHPEDFATYFCQQSFSTPPITFGQGTRLDIK"
test_result = 18.3


Consider now this further binder.
Request: Find the recorded t1/2 belonging to H1H11804P2 (antibody, human IgG1, V domains shown, human IgG1) VH: QVQLVESGGGVVQPGRSLRLSCAASGFTFISYGMHWVRQAPGKGLEWVAVISYDGSNKYYADSVKGRFTISRDNSKNTLFLQMNSLRAEDTAVYYCAKNYDFWNGYVGYYGMDVWGQGTTVTVSS VL: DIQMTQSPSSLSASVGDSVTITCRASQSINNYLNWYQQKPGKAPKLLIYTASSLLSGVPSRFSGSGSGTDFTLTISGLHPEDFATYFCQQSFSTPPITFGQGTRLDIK and report it.
Response: 14.4
